Values from BindingDB's records for doi:10.1016/j.bmcl.2017.10.053

# Target System: UniProtKB P08173
# Sequence (P08173 whole entry): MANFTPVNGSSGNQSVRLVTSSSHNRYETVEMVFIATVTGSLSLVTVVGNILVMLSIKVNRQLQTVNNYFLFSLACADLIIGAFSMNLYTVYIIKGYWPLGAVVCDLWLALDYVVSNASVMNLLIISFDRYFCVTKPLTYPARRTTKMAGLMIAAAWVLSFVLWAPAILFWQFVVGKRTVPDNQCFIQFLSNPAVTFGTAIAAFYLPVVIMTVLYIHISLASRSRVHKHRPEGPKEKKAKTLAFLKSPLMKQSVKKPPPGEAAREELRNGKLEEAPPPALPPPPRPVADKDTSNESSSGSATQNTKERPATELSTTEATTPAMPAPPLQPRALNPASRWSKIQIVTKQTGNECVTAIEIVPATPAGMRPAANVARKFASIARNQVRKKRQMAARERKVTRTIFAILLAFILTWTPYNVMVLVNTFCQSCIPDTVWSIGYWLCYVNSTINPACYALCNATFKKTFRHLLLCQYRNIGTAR
# Procedure Text: Positive allosteric modulation of human M4 receptor expressed in CHO cells co-expressing Gqi5 assessed as increase in acetylcholine-induced calcium mobilization
Experimental Readout: EC50 (µM)
Please respond with the number in µM and leave the unit unwritten.

Query block: I'd like to know its EC50. The molecule in question is Cc1nnc2sc(C(=O)N3CC4(CCN(c5cccnc5)C4)C3)c(N)c2c1C
Result block: 0.324
